Tested on: UO-31 renal
Assay: NCI-60 one-dose screen, 48 h
Conditions: 10 µM unless noted
The panel holds about 83,000 compounds, 20% with a hit somewhere; the sample as a whole holds those more often. Active and inactive are the calls of the source. How the source made its calls: active means growth percent below 10; inactive means the rest.
Hello, when you answer, please use one of the following outcomes: active, inactive

> print(dat)
                                   compound  qualitative.label
1  COc1cccc(C=NC(Cc2cnc[nH]2)C(=O)O)c1O (stereo unspecified)           inactive
2  CC(=O)O[C@H](C[C@H](C(C)C)N(C)C(=O)[C@@H](NC(=O)[C@H]1CCCN1C)C(C)C)c1nc(C(=O)N[C@@H](Cc2ccccc2)C[C@H](C)C(=O)O)c(C)s1           inactive
3  O=C([O][Hg][CH2]C1OCCOC1[CH2][Hg][O]C(=O)c1ccccc1)c1ccccc1 (stereo unspecified)             active
4  COC(=O)C12CC(NC(=O)c3csc([C@@H](C[C@H](C(C)C)N(C)C(=O)[C@@H](NC(=O)[C@H]4CCCCN4C)C(C)C)OC(C)=O)n3)(C1)C2           inactive
5  C/C(=C\c1ccn(-c2ccccc2N)n1)[C@@H]1C[C@@H]2O[C@]2(C)CCC[C@H](C)[C@H](O)[C@@H](C)C(=O)C(C)(C)[C@@H](O)CC(=O)O1           inactive

In: Tell me the assay call for `O=C(CCCC1CCCCC1)OCC(Cl)(Cl)Cl` please.
Out: inactive

In: Please indicate how the test categorized `O=[N+]([O-])c1cc([N+](=O)[O-])c(Cl)cc1Cl` .
Out: active

In: Name the outcome recorded for `NC(N)=N/N=C\c1c[nH]c2ccc(Br)cc12` in the assay.
Out: inactive

In: Hello, I am checking results. What call was entered for `COC(=O)[C@@H](C)C[C@H](Cc1ccc(F)cc1)NC(=O)c1csc([C@@H](C[C@H](C(C)C)N(C)C(=O)[C@@H](NC(=O)[C@H]2CCCCN2C)C(C)C)OC(C)=O)n1` ?
Out: inactive

In: # lookup: test call for `Cc1cc(N(CCCl)CCCl)ccc1C=Nc1ccccc1-c1ccccc1`
Out: inactive

In: // outcome(item) with item = `CCOC(=O)[C@@H](C)C[C@H](Cc1ccccc1)NC(=O)c1csc([C@@H](C[C@H](C(C)C)N(C)C(=O)[C@H](CC)NC(=O)[C@H]2CCCCN2C)OC(C)=O)n1`
Out: inactive

* * *

Catalogue of compounds with associated growth
Tested on: MOLT-4 leukemia
Assay: NCI-60 one-dose screen, 48 h (100 = growth as untreated, 0 = no growth, -100 = all killed)
Conditions: 10 µM unless noted
About 83,000 compounds went through this panel and 20% of them were active in at least one assay; those are over-represented in the sample as a whole.
# number only, unit % dropped from output

Some solved cases for reference:
> print(dat)
                                   compound  test.readout  quantitative.readout
1  CCOC(=O)c1c(C)n(Cc2ccccc2)c2cc(CN(C)C)c(O)cc12        growth                  52.7
2  COC(=O)[C@@]1(C)CC[C@]2(C)CC[C@]3(C)C4=CC=C5C(=CC(=O)C(O)=C5C)[C@]4(C)CC[C@@]3(C)[C@@H]2C1        growth                 -43.3
3                     Oc1c(CCl)cc(Cl)cc1CCl        growth                  98.4

In: Which value of growth has been reported for `CC[C@H](C)[C@H](NC(=O)[C@H]1CCCCN1C)C(=O)N(C)[C@H](C[C@@H](OC(C)=O)c1nc(C(=O)NC23CC(C(=O)OC)(C2)C3)cs1)C(C)C` in the records?
Out: 6.06

In: # input compound: O=C1C2C(C(=O)[N]1[Hg][c]1cccs1)C1(Cl)C(Cl)=C(Cl)C2(Cl)C1(Cl)Cl (stereo unspecified) ; wanted: its growth
Out: 3.08

In: Data request, read-out growth, for `COC(=O)CCc1c[nH]c2ccc(N(CCCl)CCCl)cc12`
Out: 23.1

In: May I ask what growth has been recorded for `COC(=O)[C@H](Cc1ccccc1)NNC(=O)c1csc([C@@H](C[C@H](C(C)C)N(C)C(=O)[C@@H](NC(=O)[C@H]2CCCCN2C)C2CC2)OC(C)=O)n1` ?
Out: 7.86

In: Item `CCCOC(=O)N[C@H]1CCc2c(Br)c(OC)c(OC)c(OC)c2-c2ccc(SC)c(=O)cc21` has what recorded growth?
Out: 10.7

In: // growth lookup, key: `COc1cc(C=Nc2cc(Cl)cc(Cl)c2)ccc1N(CCCl)CCCl`
Out: 58.9

In: Any idea what its growth is? The compound is `CC(=O)[O][Hg][O]C(C)=O`
Out: 84.8

In: What does the data say about its growth? Entry: `COc1ccc(/C=C\c2cc(OC)c(OC)c(OC)c2)c(NS(=O)(=O)c2ccc(C)cc2)c1O`
Out: 20.8

Cited source: PubChem BioAssay (NCI)
